Tested on: HCC-2998 colon
assay.method.text: NCI tumour cell line growth inhibition, 48 h
Field: TGI. Provide a value for each of the compounds that follow.

Q) // lookup TGI for COc1cc([C@@H]2Oc3cc4oc(-c5ccccc5)cc(=O)c4c(O)c3O[C@H]2OC)ccc1O
A) 26.5 µM

Q) // lookup TGI for Cc1ccnc(Nc2ccc([N+](=O)[O-])c(NCCN3CCOCC3)n2)c1
A) 14.7 µM

Q) // lookup TGI for O=C(OC[C@@H]1CO1)c1cccc2c(=O)c3ccccc3[nH]c12
A) 1.25 µM

Q) // lookup TGI for COC(=O)[C@@H]1COC(=O)N1
A) > 100 µM

Q) // lookup TGI for CCC(=C/[C@H](C)C/C=C/C(C)=C/[C@@H](C)C(=O)[C@@H](C)[C@H](O)[C@@H](C)CC)/C=C/[C@H]1CC=CC(=O)O1
A) < 0.0012 µM

Q) // lookup TGI for COc1cc2cc3c(c(O)c2c(O)c1-c1c(OC)cc2cc4c(c(O)c2c1O)C(=O)O[C@H](C)C4)C(=O)O[C@H](C)C3
A) > 100 µM

Q) // lookup TGI for c1ccc(Nc2nnc(CCCCCCCCc3nnc(Nc4ccccc4)o3)o2)cc1
A) > 100 µM

====

Field: TGI. Provide a value for each of the compounds that follow.
Tested on: T-47D breast
assay.method.text: NCI tumour cell line growth inhibition, 48 h

Q) // lookup TGI for C#Cc1cccc(NC(=O)C2CCCN(C(=O)CCl)C2)c1 (centres undefined)
A) > 82.5 µM

Q) // lookup TGI for CCOC(=O)C1CCC(=O)N1C(=O)c1ccc(Cl)cc1 (centres undefined)
A) > 100 µM

Q) // lookup TGI for COc1cc2c(cc1OC)C(=O)N(c1ccc(OCCN3CCCC3)cc1)C2=O
A) > 100 µM

Q) // lookup TGI for COc1cc(/C=C2\C(=O)N(C)c3ccccc32)cc(OC)c1OC
A) > 100 µM

====

Field: TGI. Provide a value for each of the compounds that follow.
System: MDA-N
assay.method.text: NCI tumour cell line growth inhibition, 48 h

Q) // lookup TGI for Cc1nc2c(Br)cc(Br)cc2c(=O)n1-c1ccccc1NC1OCC(O)C(O)C1O (stereo not given)
A) > 100 µM

Q) // lookup TGI for COc1cccc(CCCNC(=O)Cc2ccccc2CO)c1
A) > 100 µM

Q) // lookup TGI for CCC1CN2CCc3c([nH]c4ccccc34)[C@@](C(=O)OC)(c3cc4c(cc3OC)N(C)C3C(O)(C(=O)OC)C(C(=O)OC)C5(CC)C=CCN6CCC43C65)C[C@@H](C2)[C@@H]1C(C)(C)C (stereo not given in full)
A) 0.424 µM

Q) // lookup TGI for CC(=O)C(C(C)=O)[C@H]1OC(C)(C)O[C@H]1[C@H]1COC(C)(C)O1
A) > 100 µM

Q) // lookup TGI for CCOC(=O)C1CCC(=O)N1C(=O)c1ccc(Cl)cc1 (stereo not given)
A) > 100 µM

Q) // lookup TGI for C/C(=N\NC(=S)N1CCOCC1)c1nc2ncccc2[nH]1
A) > 100 µM

Q) // lookup TGI for CN(C)c1ccc(C2CC(C)(O)Oc3cc4c(cc32)OCO4)cc1 (stereo not given)
A) > 100 µM

Q) // lookup TGI for O=c1c2cc(I)ccc2nc(-c2cccs2)n1O
A) > 100 µM

Q) // lookup TGI for COC(=O)c1ccccc1C1CN=NC12Cc1c(C)ccc(C)c1C2=O (stereo not given)
A) > 100 µM

Q) // lookup TGI for CCCCCCCCCCCCC1N=C(N)N2CCCC2=C1C(=O)OC (stereo not given)
A) 4.72 µM

Q) // lookup TGI for COc1ccc(/C=N/Nc2nnc3c(n2)c2ccccc2c2nn(-c4ccccc4Cl)nc23)cc1
A) > 100 µM

Q) // lookup TGI for Clc1cc2ncn(C3CCCCO3)c2cc1Cl (stereo not given)
A) > 100 µM

Q) // lookup TGI for CC(C)=CCc1c2c(c(O)c3c(=O)c4c(oc13)-c1ccc(O)cc1OC4C=C(C)C)C=CC(C)(C)O2 (stereo not given)
A) 27.1 µM

Q) // lookup TGI for CC(=O)NN(c1ccccc1)C1CCN(c2ccccc2)N1C(C)=O (stereo not given)
A) > 10 µM

Q) // lookup TGI for CC(C)[C@@H]1NC(=O)[C@@H]2N=C(O[C@H]2C)[C@H](C(C)C)NC(=O)C2N=C1O[C@H]2C
A) > 100 µM
